# Test system: UO-31 renal
# protocol details: NCI tumour cell line growth inhibition, 48 h
parameter measured: TGI (µM)
# value in µM; strip the unit string

                                   compound  parameter_measured  unit_info  meas_value
0  COC(COC(N)=O)C1=C(N2CC2)C(=O)C(C)=C(N2CC2)C1=O (stereo unspecified)                 TGI         µM      0.0796
1  COc1ccc2ncn(-c3cc(O[C@H](C)c4ccccc4C(F)(F)F)c(C(N)=O)s3)c2c1                 TGI         µM        12.4

We next turn to a different compound, shown below.
Problem: // map `CCCCCCCCCCCCCCCC1=NCC[N+]1(CCO)CCO` to recorded TGI (system: UO-31 renal)
Result: 3.33

###

# System: SN12C renal
# protocol details: NCI tumour cell line growth inhibition, 48 h
parameter measured: GI50

Worked set:
>>> df
                                   compound  parameter_measured  meas_value
0  O=C1Nc2c(ccc(Cl)c2Cl)/C1=C/c1cc(Br)c(O)c(Br)c1                GI50    10700 nM
1  CC(C)(C)C(=O)OCOP(=O)(NCc1ccccc1)C1CCCN(O)C1=O (stereo not given)                GI50      752 nM
2  COc1ccccc1Nc1cc(O)c2c(=O)cc(-c3ccccc3)oc2c1                GI50     3500 nM

Problem: Please report the recorded GI50 for `CCCCCCCCCCCCCCCC1=NCC[N+]1(CCO)CCO` .
Result: 1850 nM

Problem: Now consider `Clc1c(Cl)[n+](Cc2ccc3ccccc3c2)cn1Cc1ccc2ccccc2c1` .
Result: 1530 nM

###

# System: OVCAR-5 ovarian
# protocol details: NCI tumour cell line growth inhibition, 48 h; in the data active means GI50 below about 0.43 µM; inactive means the rest
In this exercise, the only acceptable responses are active, inactive

>>> print(df.to_string())
                        structure_as_smiles     group
0        CCCCCCCCCCCCCCCC1=NCC[N+]1(CCO)CCO  inactive
1  CCc1ccc(Oc2c(-c3ccc(OCc4ccc(Cl)cc4)cc3O)n[nH]c2C(F)(F)F)cc1  inactive
2  Nc1nc(/C=C\c2ccc([N+](=O)[O-])s2)nc(N2CCN(c3ccccc3)CC2)n1  inactive
3  Cc1ccc(O)c(NC(=O)c2cccc(Nc3ccnc(C(F)(F)F)c3)c2)c1  inactive

Continue with the next compound.
Problem: How did this test come out for `NS(=O)(=O)OC[C@H]1C[C@@H](Nc2ccnc3cc(-c4cccc(SC(F)(F)F)c4)nn23)[C@H](O)[C@@H]1O` ?
Result: active

###

# System: SK-MEL-28 melanoma
# protocol details: NCI tumour cell line growth inhibition, 48 h
parameter measured: GI50

Worked set:
>>> df
                                   compound  parameter_measured  meas_value
0  O=C(CSc1nc2c(n1Nc1ccccc1)-c1ccccc1SC2)Nc1nc(-c2ccc(Cl)cc2)cs1                GI50    > 100 µM
1  CNC(=O)c1ccc(N2C(=S)N(c3cnc(C#N)c(C(F)(F)F)c3)C(=O)C23CCC3)cc1F                GI50    > 100 µM

We next turn to a different compound, shown below.
Problem: // map COc1cc2c(cc1OC(C)C)[C@H](c1ccc(Cl)cc1)N(c1ccc(N(C)CC3CCC(N4CCN(C)C(=O)C4)CC3)cc1)C(=O)C2 (stereo partly drawn) to recorded GI50 (system: SK-MEL-28 melanoma)
Result: 2 µM
